Numbers sourced from paper PMC5916922.

TESTED ON: NHBA (Neisseria Heparin Binding Antigen), recombinant (Neisseria meningitidis)
Construct: pET19b, His-tagged; forward primer codes from SPDVK (lipoprotein signal peptide removed); immobilised by amine coupling on CM5 chip
ASSAY REMARKS: SPR, single cycle kinetics, immobilised NHBA
DETAILS: recombinant NHBA amine-coupled to CM5 chip; glycan in flow; read-out: KD (μM) (mean ± standard deviation)
QUANTITY NAME: Kd (µM)
Please give a number only; it is taken to be in µM.

### Prompt For `O=P(O)(O)OC[C@H]1O[C@@H](O)[C@H](O)[C@@H](O)[C@@H]1O` , write its Kd.
### Response 0.056

###

TESTED ON: NHBA (Neisseria Heparin Binding Antigen), recombinant (Neisseria meningitidis, UniProt Q7DD37)
Construct: pET19b, His-tagged; forward primer codes from SPDVK (lipoprotein signal peptide removed); immobilised by amine coupling on CM5 chip
Sequence (Q7DD37 25-488): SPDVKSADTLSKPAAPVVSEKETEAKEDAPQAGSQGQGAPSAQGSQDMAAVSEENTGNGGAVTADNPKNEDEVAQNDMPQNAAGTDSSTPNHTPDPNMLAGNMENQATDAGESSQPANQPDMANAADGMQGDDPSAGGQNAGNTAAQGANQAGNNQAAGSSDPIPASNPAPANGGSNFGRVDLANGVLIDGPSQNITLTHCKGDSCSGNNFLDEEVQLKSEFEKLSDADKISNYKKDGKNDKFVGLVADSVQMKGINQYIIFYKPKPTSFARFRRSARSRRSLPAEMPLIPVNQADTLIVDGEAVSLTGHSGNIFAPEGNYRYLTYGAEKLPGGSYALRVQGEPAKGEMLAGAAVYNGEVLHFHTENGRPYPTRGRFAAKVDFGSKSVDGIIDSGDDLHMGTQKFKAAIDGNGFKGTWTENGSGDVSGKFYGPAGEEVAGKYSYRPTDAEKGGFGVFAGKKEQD
ASSAY REMARKS: SPR, single cycle kinetics, immobilised NHBA
DETAILS: read-out: KD (μM) (mean ± standard deviation); recombinant NHBA amine-coupled to CM5 chip; glycan in flow
QUANTITY NAME: Kd
Write the numeric value and append its unit.

{"columns": ["COMPOUND", "VALUE MEASURED"],
 "data": [
  ["O=S(=O)(O)O[C@@H]1[C@H](O[C@H]2O[C@@H]3CO[C@H]([C@H]2O)[C@H]3O[C@@H]2O[C@H](CO)[C@H](O)[C@H](O[C@H]3O[C@@H]4CO[C@@H]([C@H]4O)[C@H]3O)[C@H]2O)[C@@H](O)C(O)O[C@@H]1CO (stereo partly shown) [12B, Neocarratetraose-4^1-O-sulfate (Na+)]", "0.446 µM"],
  ["CC(=O)N[C@H]1C(O)O[C@H](CO)[C@@H](O)[C@@H]1O[C@@H]1OC(C(=O)O)=C[C@H](O)[C@H]1O (stereo partly shown) [13E, Hyaluronan disaccharide ΔDi-HA]", "0.13 µM"],
  ["CC(=O)N[C@H]1C(O)O[C@H](CO)[C@@H](O[C@@H]2O[C@@H](C)[C@@H](O)[C@@H](O)[C@@H]2O)[C@@H]1O[C@@H]1O[C@H](CO)[C@H](O)[C@H](OS(=O)(=O)O)[C@H]1O (stereo partly shown) [8A, Sulfo Lewis A]", "33.4 µM"]
]}

### Prompt For CC(=O)N[C@H]1C(O)O[C@H](CO)[C@@H](O[C@@H]2O[C@H](CO)[C@H](O[C@H]3O[C@H](CO)[C@H](O)[C@H](O)[C@H]3O)[C@H](O)[C@H]2O)[C@@H]1O (stereo partly shown) [2E, P1 antigen] , write its Kd.
### Response 14.9 µM

###

Entries and their pKd
TESTED ON: NHBA (Neisseria Heparin Binding Antigen), recombinant (Neisseria meningitidis, UniProt Q7DD37)
Construct: pET19b, His-tagged; forward primer codes from SPDVK (lipoprotein signal peptide removed); immobilised by amine coupling on CM5 chip
ASSAY REMARKS: SPR, single cycle kinetics, immobilised NHBA
DETAILS: recombinant NHBA amine-coupled to CM5 chip; glycan in flow
Where a name gives a salt, the structure may show the parent alone.
Entry type: numeric. Quantity: pKd, the -log10 of concentration in molar units.

{"columns": ["COMPOUND", "pKd"],
 "data": [
  ["CC(=O)N[C@H]1C(O)O[C@H](COS(=O)(=O)O)[C@H](O)[C@@H]1O[C@@H]1OC(C(=O)O)=C[C@H](O)[C@H]1OS(=O)(=O)O (some centres unmarked) [chondroitin sulfate type D disaccharide]", 8.02]
]}

--- query ---
### Prompt For CC(=O)N[C@H]1C(O)O[C@H](CO)[C@H](OS(=O)(=O)O)[C@@H]1O[C@@H]1OC(C(=O)O)=C[C@H](O)[C@H]1OS(=O)(=O)O (some centres unmarked) , write its pKd.
### Response 6.30
